test system: Leishmania donovani; assay: Leishmania intramacrophage assay; assay type: functional, organism-based; parameters: scale not given: in the data most compounds retested in dose-response had high values; conditions: 30.3 µM; […]
The whole screen tested about 69,000 compounds, of which about 1,000 (1.4%) showed an effect of 50% or more. The list comes from a sample in which strong results are over-represented; it also holds close analogues and randomly drawn compounds.
Rule: Percent Effect below 60% gives condition met, anything at or above gives condition not met.

Would you please look over these solved cases?
INPUT: Strictly below 60% in Percent Effect? CCc1cnc(CCNC(C)CC(=O)Nc2cccc(C)c2C)s1 (stereo unspecified)
OUTPUT: condition met

INPUT: Please answer likewise for Cc1cc2cc(CNC3CCN(CC4CCOC4)CC3)oc2cc1C (stereo unspecified)
OUTPUT: condition not met

INPUT: Please answer likewise for CCC(=O)N1CCN(c2ncnc3cc4c(cc23)OCCO4)CC1
OUTPUT: condition met

Further cases:
INPUT: Strictly below 60% in Percent Effect? CC(C)C(=O)N1CCN(c2ncnc3cc4c(cc23)OCCO4)CC1
OUTPUT: condition met

INPUT: Please answer likewise for Cc1cc2cc(CNC3CCN(S(C)(=O)=O)CC3)oc2cc1C
OUTPUT: condition met

INPUT: Please answer likewise for CC(=O)N1CCN(c2ncnc3cc4c(cc23)OCCO4)CC1
OUTPUT: condition met
